details: in 1,4-dioxane, 293.15 K
Attribute measured: solubility (mole fraction)
# answer = number (no unit)

Per the records, this compound ( CC(C(=O)O)c1ccc2c(c1)CC(=O)c1ccccc1S2 (stereo unspecified) ) has solubility (mole fraction) equal to 0.103

---

settings: in 2-ethoxyethanol, 313.15 K
Attribute measured: solubility (mole fraction)
# answer = number (no unit)

Per the records, this molecule ( CC(C(=O)O)c1ccc2c(c1)CC(=O)c1ccccc1S2 (stereo unspecified) ) has solubility (mole fraction) equal to 0.106

---

conditions: in 2-methoxyethanol, 278.15 K
Attribute measured: solubility (mole fraction)
# answer = number (no unit)

Per the records, this molecule ( CC(C(=O)O)c1ccc2c(c1)CC(=O)c1ccccc1S2 (stereo unspecified) ) has solubility (mole fraction) equal to 0.0278
